Reference source: ChEMBL document CHEMBL1147037

Target: Mu-type opioid receptor (Homo sapiens)
Sequence (P35372 whole entry): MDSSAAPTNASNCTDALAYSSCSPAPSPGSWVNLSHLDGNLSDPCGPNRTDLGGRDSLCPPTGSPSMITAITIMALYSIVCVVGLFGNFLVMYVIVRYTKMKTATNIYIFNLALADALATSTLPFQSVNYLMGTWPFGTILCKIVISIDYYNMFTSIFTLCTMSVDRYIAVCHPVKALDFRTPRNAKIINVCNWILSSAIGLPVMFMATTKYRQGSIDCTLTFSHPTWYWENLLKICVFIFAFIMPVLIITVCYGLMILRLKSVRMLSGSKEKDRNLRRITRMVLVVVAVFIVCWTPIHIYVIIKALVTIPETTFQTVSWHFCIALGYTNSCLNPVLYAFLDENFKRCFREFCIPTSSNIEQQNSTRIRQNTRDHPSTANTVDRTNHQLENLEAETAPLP
Experiment: Activation of human mu opioid receptor expressed in HEK293a cells co-expressing YFP-labelled alphai1 and CFP-labelled beta1gamma2 Gi subunits assessed as Gi protein activation by fluorescence resonance energy transfer
observationType: EC50
Quick note: number first, unit second.

Examples with their reported EC50 follow.
> print(dat)
                       smilesrepresentation  observationtype  measuredvalue
1  CN1CC[C@]23c4c5ccc(O)c4O[C@H]2C(=O)C=C[C@H]3[C@H]1C5             EC50          28 nM
2  COC1=CC=C2[C@H]3Cc4ccc(OC)c5c4[C@@]2(CCN3C)[C@H]1O5             EC50        5600 nM
3  COC1=CC=C2[C@H]3Cc4ccc(O)c5c4[C@@]2(CCN3C)[C@H]1O5             EC50         277 nM
4  COC1=C[C@]23CCN(C)[C@H](Cc4ccc(OC)c(O)c42)C3=CC1=O             EC50       32500 nM

Could you now look at the following compound, please?
I am curious: what EC50 value has been reported for COc1ccc2c3c1O[C@H]1C(=O)C=C[C@H]4[C@@H](C2)N(C)CC[C@]314 ?
294 nM

====

Target: Mu-type opioid receptor (Homo sapiens)
observationType: pKi
Note on units: pKi is unitless, being -log10 of a concentration expressed in mol/L.

Worked cases, answers included:
> print(dat)
                                   compound  measuredvalue
1  CN1CC[C@]23c4c5ccc(O)c4O[C@H]2C(=O)C=C[C@H]3[C@H]1C5 [MORPHINONE]           6.84
2  COC1=CC=C2[C@H]3Cc4ccc(O)c5c4[C@@]2(CCN3C)[C@H]1O5 [ORIPAVINE]           6.54
3  COC1=C[C@]23CCN(C)[C@H](Cc4ccc(OC)c(O)c42)C3=CC1=O [SALUTARIDINE]           4.46

Item under review: COc1ccc2c3c1O[C@H]1C(=O)C=C[C@H]4[C@@H](C2)N(C)CC[C@]314 [CODEINONE] . Reported pKi?
6.34

So what's the measured pKi for this one? COC1=CC=C2[C@H]3Cc4ccc(OC)c5c4[C@@]2(CCN3C)[C@H]1O5 [THEBAINE]
5.13

====

Emax for assorted compounds
Biological target: UniProt:P35372
Details: HEK293-A, at 100 µM
The reply should be a number in %, with the unit left off.

> print(dat)
                       smilesrepresentation  measuredvalue
1  COC1=C[C@]23CCN(C)[C@H](Cc4ccc(OC)c(O)c42)C3=CC1=O           54.4
2  COC1=C[C@]23CCN(C)[C@H](Cc4ccc(OC)c(O)c42)C3=C[C@@H]1O           17.7
3  COC1=CC=C2[C@H]3Cc4ccc(OC)c5c4[C@@]2(CCN3C)[C@H]1O5           76.3

Which Emax is listed for COc1ccc(C[C@@H]2c3cc(O)c(OC)cc3CCN2C)cc1O ?
15.9
